assayed target: EZH2 (Homo sapiens)
assay: EZH2 assay: rPRC2 with biotinylated oligonucleosome substrates and 3H SAM, FlashPlate scintillation counting, IC50
Format: biochemical
condition info: rPRC2, biotinylated oligonucleosome substrates, 3H SAM; read-out: EZH2 IC50

{"compound": "CC(C)Oc1ccc(C(=O)NC2CC(C)(C)NC(C)(C)C2)cc1 [Compound I-136]", "assayed target": "EZH2 (Homo sapiens)", "IC50": "> 80 µM"}
{"compound": "CC1(C)CC(NC(=O)c2ccc(C(=O)Nc3cccc(Br)c3)cc2)CC(C)(C)N1 [Compound I-161]", "assayed target": "EZH2 (Homo sapiens)", "IC50": "> 80 µM"}
{"compound": "N#Cc1c(Oc2ccc(C(=O)NC3CCN(CCN)CC3)cc2Cl)cccc1-c1ccnnc1 [Compound I-486]", "assayed target": "EZH2 (Homo sapiens)", "IC50": "5 to 20 µM"}
{"compound": "CC1(C)CC(NC(=O)c2ccc(Oc3ccccc3C#N)c(N3CCOCC3)c2)CC(C)(C)N1 [Compound I-196]", "assayed target": "EZH2 (Homo sapiens)", "IC50": "< 5 µM"}
{"compound": "Cc1ncccc1Oc1ccc(C(=O)NC2CC(C)(C)NC(C)(C)C2)cc1 [Compound I-20]", "assayed target": "EZH2 (Homo sapiens)", "IC50": "5 to 20 µM"}
{"compound": "CC1(C)CC(NC(=O)c2ccc(Oc3ccccc3)cc2)CC(C)(C)N1 [Compound I-52]", "assayed target": "EZH2 (Homo sapiens)", "IC50": "20 to 80 µM"}
{"compound": "CC(Oc1ccccc1Oc1ccc(C(=O)NC2CC(C)(C)NC(C)(C)C2)cc1)c1ccccc1 (centres unmarked) [Compound I-208]", "assayed target": "EZH2 (Homo sapiens)", "IC50": "5 to 20 µM"}
{"compound": "CC1(C)CC(NC(=O)c2ccc(Oc3ccccc3C#N)c(Cl)c2)CC(C)(C)N1 [Compound I-2]", "assayed target": "EZH2 (Homo sapiens)", "IC50": "< 5 µM"}
{"compound": "CNC(=O)Cc1cccc(Oc2ccc(C(=O)NC3CC(C)(C)NC(C)(C)C3)cc2Cl)c1C#N [Compound I-458]", "assayed target": "EZH2 (Homo sapiens)", "IC50": "< 5 µM"}
{"compound": "CC1(C)CC(NC(=O)c2ccc(COc3ccccc3C#N)cc2)CC(C)(C)N1 [Compound I-240]", "assayed target": "EZH2 (Homo sapiens)", "IC50": "> 80 µM"}
{"compound": "CC1(C)CC(NC(=O)c2ccc(Oc3cccc(-c4ccnc(O)c4)c3C#N)c(Cl)c2)CC(C)(C)N1 [Compound I-583]", "assayed target": "EZH2 (Homo sapiens)", "IC50": "< 5 µM"}
{"compound": "Cn1cncc1COc1ccc(C(=O)NC2CC(C)(C)NC(C)(C)C2)cc1Cl [Compound I-390]", "assayed target": "EZH2 (Homo sapiens)", "IC50": "> 80 µM"}
{"compound": "Cc1cc(C(=O)NC2CC(C)(C)NC(C)(C)C2)ccc1Oc1ccccc1 [Compound I-24]", "assayed target": "EZH2 (Homo sapiens)", "IC50": "20 to 80 µM"}
{"compound": "CC1(C)CC(NC(=O)c2ccc(Oc3ccccc3OCc3cccnc3)cc2)CC(C)(C)N1 [Compound I-232]", "assayed target": "EZH2 (Homo sapiens)", "IC50": "20 to 80 µM"}
{"compound": "Cc1noc(C)c1-c1cc(C(=O)NC2CC(C)(C)NC(C)(C)C2)ccc1Oc1ccccc1C#N [Compound I-214]", "assayed target": "EZH2 (Homo sapiens)", "IC50": "20 to 80 µM"}
{"compound": "CC1(C)CC(NC(=O)c2ccc(Oc3cccc(-c4ccc(C#N)nc4)c3C#N)c(Cl)c2)CC(C)(C)N1 [Compound I-526]", "assayed target": "EZH2 (Homo sapiens)", "IC50": "< 5 µM"}
{"compound": "CC1(C)CC(NC(=O)c2ccc(Oc3cccc(CCC(=O)N4CCCC4)c3C#N)c(Cl)c2)CC(C)(C)N1 [Compound I-553]", "assayed target": "EZH2 (Homo sapiens)", "IC50": "< 5 µM"}
{"compound": "CNCc1cccc(Oc2ccc(C(=O)NC3CC(C)(C)NC(C)(C)C3)cc2Cl)c1 [Compound I-425]", "assayed target": "EZH2 (Homo sapiens)", "IC50": "> 80 µM"}
{"compound": "CC1(C)CC(NC(=O)c2ccc(Oc3ccccc3C#N)c(Cc3ccccc3)c2)CC(C)(C)N1 [Compound I-201]", "assayed target": "EZH2 (Homo sapiens)", "IC50": "< 5 µM"}
{"compound": "CC1(C)CC(NC(=O)c2ccc(N3C(=O)COc4ccccc43)c(Cl)c2)CC(C)(C)N1 [Compound I-522]", "assayed target": "EZH2 (Homo sapiens)", "IC50": "20 to 80 µM"}
{"compound": "CC1(C)CC(NC(=O)c2ccc(Oc3cccc(CN4CCCCC4)c3)cc2)CC(C)(C)N1 [Compound I-169]", "assayed target": "EZH2 (Homo sapiens)", "IC50": "5 to 20 µM"}
{"compound": "CC1CC(NC(=O)c2ccc(Oc3cccc(-c4ccnnc4)c3C#N)c(Cl)c2)CC(C)N1 (centres unmarked) [Compound I-472]", "assayed target": "EZH2 (Homo sapiens)", "IC50": "< 5 µM"}
{"compound": "CC(C)c1ccc(C(=O)NC2CC(C)(C)NC(C)(C)C2)cc1 [Compound I-135]", "assayed target": "EZH2 (Homo sapiens)", "IC50": "> 80 µM"}
{"compound": "CC1(C)CC(NC(=O)c2ccc(OCc3ccccc3)cc2)CC(C)(C)N1 [Compound I-75]", "assayed target": "EZH2 (Homo sapiens)", "IC50": "> 80 µM"}
{"compound": "CC1(C)CC(NC(=O)c2ccc(Oc3ccccc3C(N)=O)c(Cl)c2)CC(C)(C)N1 [Compound I-284]", "assayed target": "EZH2 (Homo sapiens)", "IC50": "5 to 20 µM"}
{"compound": "CC(c1ccccc1C#N)N1CCN(C(=O)NC2CC(C)(C)NC(C)(C)C2)CC1=O (centres unmarked) [Compound I-484]", "assayed target": "EZH2 (Homo sapiens)", "IC50": "> 80 µM"}
{"compound": "CC1(C)CC(NC(=O)c2ccc(Oc3cccc4nccn34)c(Cl)c2)CC(C)(C)N1 [Compound I-372]", "assayed target": "EZH2 (Homo sapiens)", "IC50": "5 to 20 µM"}
{"compound": "CC1(C)CC(NC(=O)c2ccc(Oc3cccc(-c4ccc[nH]4)c3C#N)c(Cl)c2)CC(C)(C)N1 [Compound I-337]", "assayed target": "EZH2 (Homo sapiens)", "IC50": "< 5 µM"}
{"compound": "CC1(C)CC(NC(=O)c2ccc(N3CC(c4ccccc4)CC3=O)c(Cl)c2)CC(C)(C)N1 (centres unmarked) [Compound I-396]", "assayed target": "EZH2 (Homo sapiens)", "IC50": "> 80 µM"}
{"compound": "CC1(C)CC(NC(=O)c2ccc(COc3cccc(Br)c3)cc2)CC(C)(C)N1 [Compound I-8]", "assayed target": "EZH2 (Homo sapiens)", "IC50": "5 to 20 µM"}
{"compound": "CN(C)C(=O)c1ccccc1Oc1ccc(C(=O)NC2CC(C)(C)NC(C)(C)C2)cc1Cl [Compound I-246]", "assayed target": "EZH2 (Homo sapiens)", "IC50": "20 to 80 µM"}
{"compound": "CC1(C)CC(NCc2ccc(Oc3ccccc3C#N)cc2)CC(C)(C)N1 [Compound I-306]", "assayed target": "EZH2 (Homo sapiens)", "IC50": "> 80 µM"}

* * *

assayed target: EZH2 (Homo sapiens, UniProt Q15910)
Sequence (Q15910 whole entry): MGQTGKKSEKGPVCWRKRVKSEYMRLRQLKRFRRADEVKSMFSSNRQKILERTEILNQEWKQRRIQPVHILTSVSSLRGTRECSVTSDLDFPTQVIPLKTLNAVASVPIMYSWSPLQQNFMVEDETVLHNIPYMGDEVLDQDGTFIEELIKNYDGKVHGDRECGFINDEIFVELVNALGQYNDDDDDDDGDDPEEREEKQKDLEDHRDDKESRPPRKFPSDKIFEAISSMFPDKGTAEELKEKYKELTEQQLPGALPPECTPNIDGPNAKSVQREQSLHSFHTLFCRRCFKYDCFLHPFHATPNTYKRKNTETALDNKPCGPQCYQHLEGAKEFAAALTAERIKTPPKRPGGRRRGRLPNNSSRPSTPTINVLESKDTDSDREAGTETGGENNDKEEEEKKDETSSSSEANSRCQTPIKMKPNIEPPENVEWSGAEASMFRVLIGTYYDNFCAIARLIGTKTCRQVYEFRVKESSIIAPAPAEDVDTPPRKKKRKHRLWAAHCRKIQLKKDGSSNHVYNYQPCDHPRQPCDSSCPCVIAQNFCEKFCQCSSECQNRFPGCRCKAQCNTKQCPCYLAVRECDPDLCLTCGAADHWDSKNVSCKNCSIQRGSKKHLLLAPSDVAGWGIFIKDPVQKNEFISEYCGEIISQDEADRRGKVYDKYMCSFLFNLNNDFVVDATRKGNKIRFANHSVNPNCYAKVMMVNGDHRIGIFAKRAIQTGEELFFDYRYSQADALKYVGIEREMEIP
Sequence (O75530 whole entry partner): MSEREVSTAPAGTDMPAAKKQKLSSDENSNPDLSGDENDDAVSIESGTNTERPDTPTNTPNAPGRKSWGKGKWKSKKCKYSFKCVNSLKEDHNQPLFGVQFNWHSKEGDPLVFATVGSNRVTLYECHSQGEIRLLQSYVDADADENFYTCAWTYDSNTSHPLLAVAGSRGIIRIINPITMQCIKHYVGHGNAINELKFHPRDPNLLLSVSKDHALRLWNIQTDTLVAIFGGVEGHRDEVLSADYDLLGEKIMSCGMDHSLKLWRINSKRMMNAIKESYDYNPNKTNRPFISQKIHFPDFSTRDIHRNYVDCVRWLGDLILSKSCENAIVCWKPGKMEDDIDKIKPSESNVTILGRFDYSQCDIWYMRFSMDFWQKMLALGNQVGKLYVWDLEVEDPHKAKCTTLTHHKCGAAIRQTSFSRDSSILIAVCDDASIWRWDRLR
Sequence (Q15022 whole entry partner): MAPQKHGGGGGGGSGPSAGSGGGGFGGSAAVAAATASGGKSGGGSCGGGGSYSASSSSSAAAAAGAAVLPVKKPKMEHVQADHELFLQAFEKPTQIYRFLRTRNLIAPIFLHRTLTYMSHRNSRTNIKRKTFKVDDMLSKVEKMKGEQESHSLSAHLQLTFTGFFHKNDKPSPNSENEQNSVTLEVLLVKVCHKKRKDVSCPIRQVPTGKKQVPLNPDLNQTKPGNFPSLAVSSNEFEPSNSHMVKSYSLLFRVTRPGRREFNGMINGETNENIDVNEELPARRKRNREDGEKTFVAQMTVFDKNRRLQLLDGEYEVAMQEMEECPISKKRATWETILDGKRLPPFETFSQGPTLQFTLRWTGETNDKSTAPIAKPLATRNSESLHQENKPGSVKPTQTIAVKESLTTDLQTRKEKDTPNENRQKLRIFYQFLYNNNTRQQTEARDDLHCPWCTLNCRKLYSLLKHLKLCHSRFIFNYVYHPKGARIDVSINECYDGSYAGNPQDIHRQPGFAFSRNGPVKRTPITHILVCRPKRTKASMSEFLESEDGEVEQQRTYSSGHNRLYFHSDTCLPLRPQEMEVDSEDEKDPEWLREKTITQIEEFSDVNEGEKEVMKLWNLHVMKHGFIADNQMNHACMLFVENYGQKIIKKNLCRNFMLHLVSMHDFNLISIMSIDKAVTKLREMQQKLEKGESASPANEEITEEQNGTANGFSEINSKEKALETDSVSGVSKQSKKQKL
assay: EZH2 assay: rPRC2 with biotinylated oligonucleosome substrates and 3H SAM, FlashPlate scintillation counting, IC50
Format: biochemical
condition info: rPRC2, biotinylated oligonucleosome substrates, 3H SAM; read-out: EZH2 IC50
Protocol: Assays were carried out by mixing rPRC2 together with biotinylated oligonucleosome substrates in the presence of the radio-labeled enzyme co-factor, S-adenosyl-L-methionine (^3H SAM) (Perkin Elmer) and monitoring the enzymatically mediated transfer of tritiated methyl groups from ^3H SAM to histone lysine residues. […]
pIC50: −log10 of the molar value.
# pIC50 values compiled below

{"compound": "CCc1cccc(Oc2ccc(C(=O)NC3CC(C)(C)NC(C)(C)C3)cc2Cl)c1-c1ccncc1", "assayed target": "EZH2 (Homo sapiens, UniProt Q15910)", "pIC50": "4.10 to 4.70"}
{"compound": "COC(=O)C1CC(NC(=O)c2ccc(Oc3ccccc3C#N)c(Cl)c2)CCN1 (stereo not shown)", "assayed target": "EZH2 (Homo sapiens, UniProt Q15910)", "pIC50": "< 4.10"}
{"compound": "Cc1ccc(OCc2ccc(C(=O)NC3CC(C)(C)NC(C)(C)C3)cc2)cc1C", "assayed target": "EZH2 (Homo sapiens, UniProt Q15910)", "pIC50": "4.70 to 5.30"}
{"compound": "CC1(C)CC(NC(=O)c2ccc(Oc3ccccc3-c3ccc(N)nc3)c(Cl)c2)CC(C)(C)N1", "assayed target": "EZH2 (Homo sapiens, UniProt Q15910)", "pIC50": "> 5.30"}
{"compound": "CCc1cccc(Oc2ccc(C(=O)NC3CC(C)(C)NC(C)(C)C3)cc2Cl)c1C#N", "assayed target": "EZH2 (Homo sapiens, UniProt Q15910)", "pIC50": "> 5.30"}
{"compound": "CCc1cccc(Oc2ccc(C(=O)NC3CC(C)(C)NC(C)(C)C3)cc2Br)c1C#N", "assayed target": "EZH2 (Homo sapiens, UniProt Q15910)", "pIC50": "> 5.30"}
{"compound": "CC1(C)CC(NC(=O)c2ccc(OCC3CCCCN3)c(Cl)c2)CC(C)(C)N1 (stereo not shown)", "assayed target": "EZH2 (Homo sapiens, UniProt Q15910)", "pIC50": "< 4.10"}
{"compound": "CN(C)Cc1ccccc1Oc1ccc(C(=O)NC2CC(C)(C)NC(C)(C)C2)cc1", "assayed target": "EZH2 (Homo sapiens, UniProt Q15910)", "pIC50": "< 4.10"}
{"compound": "Cc1ccc(-c2cccc(OCc3ccc(C(=O)NC4CC(C)(C)NC(C)(C)C4)cc3)c2)cn1", "assayed target": "EZH2 (Homo sapiens, UniProt Q15910)", "pIC50": "4.70 to 5.30"}
{"compound": "CC1(C)CC(NC(=O)N2CCC(c3ccccc3)C2)CC(C)(C)N1 (stereo not shown)", "assayed target": "EZH2 (Homo sapiens, UniProt Q15910)", "pIC50": "< 4.10"}
{"compound": "CC1(C)CC(NC(=O)c2ccc3c(c2)Cc2ccccc2O3)CC(C)(C)N1", "assayed target": "EZH2 (Homo sapiens, UniProt Q15910)", "pIC50": "< 4.10"}
{"compound": "CC1(C)CC(NC(=O)c2ccc(Oc3cccc(OCc4ccccc4)c3)cc2)CC(C)(C)N1", "assayed target": "EZH2 (Homo sapiens, UniProt Q15910)", "pIC50": "4.10 to 4.70"}
{"compound": "CC1(C)CC(NC(=O)c2ccc(Oc3cccc(-c4ccc(C#N)cc4)c3C#N)c(Cl)c2)CC(C)(C)N1", "assayed target": "EZH2 (Homo sapiens, UniProt Q15910)", "pIC50": "> 5.30"}
{"compound": "CC1(C)CC(NC(=O)c2ccc(Oc3cccc4c(N)nccc34)cc2)CC(C)(C)N1", "assayed target": "EZH2 (Homo sapiens, UniProt Q15910)", "pIC50": "4.10 to 4.70"}
{"compound": "CC1(C)CC(NC(=O)c2ccc(Oc3ccc([N+](=O)[O-])cc3)cc2)CC(C)(C)N1", "assayed target": "EZH2 (Homo sapiens, UniProt Q15910)", "pIC50": "< 4.10"}
{"compound": "Cc1ncccc1-c1cccc(OCc2ccc(C(=O)NC3CC(C)(C)NC(C)(C)C3)cc2)c1", "assayed target": "EZH2 (Homo sapiens, UniProt Q15910)", "pIC50": "4.10 to 4.70"}
